assayed-target: cathepsin L (Homo sapiens)
Sequence (P07711 114-333, species assumed): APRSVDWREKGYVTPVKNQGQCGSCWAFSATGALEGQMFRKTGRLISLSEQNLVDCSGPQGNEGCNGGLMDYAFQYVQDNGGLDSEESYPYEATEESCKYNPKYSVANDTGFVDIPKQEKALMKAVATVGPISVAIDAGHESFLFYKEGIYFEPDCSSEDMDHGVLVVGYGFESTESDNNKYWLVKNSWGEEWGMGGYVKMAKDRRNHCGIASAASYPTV
assay-overview: Inhibitory activity assay against cathepsin L (enzyme assay)
Type: biochemical
measurement-setup: Z-Phe-Arg-AMC 2 μM, enzyme 3 nM, pH 5.5, 30 minutes
Attribute: IC50

Consider the following illustrative entries.
[
  {
    "entry-smiles": "N#Cc1nccc(C2(NC(=O)Nc3cc(C(F)(F)F)c(F)cc3F)CCCCC2)n1",
    "assayed-target": "cathepsin L (Homo sapiens)",
    "IC50": "> 10000 nM"
  },
  {
    "entry-smiles": "CN(C)C(=O)c1ccc(-c2ccc(NC(=O)NC3(c4ccnc(C#N)n4)CCCCC3)cc2)cc1",
    "assayed-target": "cathepsin L (Homo sapiens)",
    "IC50": "> 10000 nM"
  },
  {
    "entry-smiles": "N#Cc1nccc(C2(NC(=O)Nc3ccc(I)c(C(F)(F)F)c3)CCCCC2)n1",
    "assayed-target": "cathepsin L (Homo sapiens)",
    "IC50": "> 10000 nM"
  },
  {
    "entry-smiles": "Cn1ncc2ccc(-c3ccc(NC(=O)NC4(c5ccnc(C#N)n5)CCCCC4)cc3)cc21",
    "assayed-target": "cathepsin L (Homo sapiens)",
    "IC50": "> 10000 nM"
  },
  {
    "entry-smiles": "N#Cc1nccc(C2(NC(=O)Nc3ccc(-c4ccc(C(=O)NC5CC5)cc4)cc3)CCCCC2)n1",
    "assayed-target": "cathepsin L (Homo sapiens)",
    "IC50": "> 10000 nM"
  }
]

Query: # query: IC50 | item `CS(=O)(=O)c1ccc(-c2ccc(NC(=O)NC3(c4ccnc(C#N)n4)CCCCC3)cc2)cc1` | system: cathepsin L (Homo sapiens)
Response: > 10000 nM

Query: # query: IC50 | item `Cc1ccc(C)c(NC(=O)NC2(c3ccnc(C#N)n3)CCC(C)(C)CC2)c1` | system: cathepsin L (Homo sapiens)
Response: 3410 nM

---

assayed-target: cathepsin K (Homo sapiens, UniProt P43235)
assay-overview: Inhibitory activity assay against cathepsin K (enzyme assay)
Format: biochemical
measurement-setup: Z-Phe-Arg-AMC 10 μM, enzyme 1 nM, pH 5.5, 30 minutes
property: IC50 (nM)

[
  {
    "compound": "N#Cc1nccc(C2(NC(=O)OCc3ccccc3F)CCCCC2)n1",
    "IC50 / nM": 60.8
  }
]

1: N#Cc1nccc(C2(NC(=O)Nc3ccc(-c4ccc(S(=O)(=O)C(F)(F)F)cc4)c(C(F)(F)F)c3)CCCCC2)n1
2: N#Cc1nccc(C2(NC(=O)Nc3cc(F)ccc3F)CCCC2)n1
3: N#Cc1nccc(C2(NC(=O)Nc3cccc(C(F)(F)F)c3)CCCCC2)n1
4: N#Cc1nccc(C2(NC(=O)Nc3ccc(N4CCOCC4)cc3)CCCCC2)n1
5: COc1cccc(CNC(=O)NC2(c3ccnc(C#N)n3)CCCC2)c1
Query: Rank order required: IC50, descending. Answer by naming the labels in the order asked.
Response: 5, 1, 2, 4, 3

I: N#Cc1nccc(C2(NC(=O)Nc3ccc4ccccc4c3)CCCC2)n1
II: CCN1CCN(c2ccc(-c3ccc(NC(=O)NC4(c5ccnc(C#N)n5)CCCCC4)cc3)cc2)CC1
III: Cc1cccc(CNC(=O)NC2(c3ccnc(C#N)n3)CCCC2)c1
Query: Rank order required: IC50, descending. Answer by naming the labels in the order asked.
Response: III, I, II

---

assayed-target: UniProt P43235
Sequence (P43235 115-329): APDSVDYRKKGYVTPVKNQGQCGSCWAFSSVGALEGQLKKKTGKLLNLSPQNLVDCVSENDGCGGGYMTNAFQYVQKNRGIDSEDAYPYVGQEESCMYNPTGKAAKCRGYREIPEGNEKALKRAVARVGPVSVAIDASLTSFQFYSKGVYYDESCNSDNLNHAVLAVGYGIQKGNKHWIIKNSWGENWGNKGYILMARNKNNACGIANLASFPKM
assay-overview: Inhibitory activity assay against cathepsin K (enzyme assay)
Format: biochemical
measurement-setup: Z-Phe-Arg-AMC 10 μM, enzyme 1 nM, pH 5.5, 30 minutes
property: IC50 (nM)

[
  {
    "compound": "N#Cc1nccc(C2(NC(=O)Nc3ccc(S(N)(=O)=O)cc3)CCCC2)n1 [Example 72]",
    "assayed-target": "UniProt P43235",
    "endpoint-value": 331
  },
  {
    "compound": "N#Cc1nccc(C2(NC(=O)Nc3ccc(N4CCNCC4)cc3)CCCCC2)n1 [Example 140]",
    "assayed-target": "UniProt P43235",
    "endpoint-value": 21.5
  },
  {
    "compound": "Cc1ccccc1COC(=O)NC1(c2ccnc(C#N)n2)CCCCC1 [Example 17]",
    "assayed-target": "UniProt P43235",
    "endpoint-value": 58.4
  },
  {
    "compound": "Cc1cc(C)cc(NC(=O)NC2(c3ccnc(C#N)n3)CCCC2)c1 [Example 63]",
    "assayed-target": "UniProt P43235",
    "endpoint-value": 64.3
  }
]

I: N#Cc1nccc(C2(NC(=O)Nc3cccc(-c4ccccc4)c3)CCCCC2)n1 [Example 111]
II: CC(C)N1CCN(c2ccc(-c3ccc(CNC(=O)NC4(c5ccnc(C#N)n5)CCCCC4)cc3)cc2)CC1 [Example 181]
III: N#Cc1nccc(C2(NC(=O)Nc3ccc(-c4ccc(C(=O)NCCc5c[nH]cn5)cc4)c(C(F)(F)F)c3)CCCCC2)n1 [Example 189]
IV: N#Cc1nccc(C2(NC(=O)Nc3ccccc3)CCCC2)n1 [Example 41]
Query: Rank order required: IC50, descending. Answer by naming the labels in the order asked.
Response: I, IV, II, III

---

assayed-target: cathepsin S (Homo sapiens)
Sequence (P25774 115-331, species assumed): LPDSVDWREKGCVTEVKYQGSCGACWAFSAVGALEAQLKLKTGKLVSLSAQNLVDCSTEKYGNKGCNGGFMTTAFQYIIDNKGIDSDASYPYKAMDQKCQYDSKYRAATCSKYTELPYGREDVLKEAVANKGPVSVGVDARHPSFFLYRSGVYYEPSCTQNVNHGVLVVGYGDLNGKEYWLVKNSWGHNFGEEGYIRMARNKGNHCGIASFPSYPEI
assay-overview: Inhibitory activity assay against cathepsin S (enzyme assay)
Type: biochemical
measurement-setup: Z-Phe-Arg-AMC 70 μM, enzyme 3 nM, pH 6.5, 45 minutes
property: IC50

Query: # query: IC50 | item N#Cc1nccc(C2(NC(=O)Nc3cccc4ccccc34)CCCC2)n1 [Example 74] | system: cathepsin S (Homo sapiens)
Response: > 10000 nM

Query: # query: IC50 | item Cn1ncc2ccc(-c3cccc(COC(=O)NC4(c5ccnc(C#N)n5)CCCC4)c3)cc21 [Example 36] | system: cathepsin S (Homo sapiens)
Response: 7350 nM

Query: # query: IC50 | item CN(C)CCNC(=O)c1ccc(-c2ccc(NC(=O)NC3(c4ccnc(C#N)n4)CCCCC3)cc2)cc1 [Example 159] | system: cathepsin S (Homo sapiens)
Response: > 10000 nM

Query: # query: IC50 | item CC(C)N1CCN(c2ccc(-c3ccc(NC(=O)NC4(c5ccnc(C#N)n5)CCCCC4)cc3F)cc2)CC1 [Example 166] | system: cathepsin S (Homo sapiens)
Response: 5940 nM

Query: # query: IC50 | item N#Cc1nccc(C2(NC(=O)Nc3ccc(-c4ccc(C(=O)NCC5CCCO5)cc4)cc3)CCCCC2)n1 (centres unmarked) [Example 158] | system: cathepsin S (Homo sapiens)
Response: 9430 nM

Query: # query: IC50 | item CC(=O)NCc1ccc(-c2ccc(NC(=O)NC3(c4ccnc(C#N)n4)CCCCC3)cc2F)cc1 [Example 165] | system: cathepsin S (Homo sapiens)
Response: > 10000 nM

Query: # query: IC50 | item N#Cc1nccc(C2(NC(=O)Nc3ccc4c(c3)OCO4)CCCC2)n1 [Example 78] | system: cathepsin S (Homo sapiens)
Response: > 10000 nM

Query: # query: IC50 | item N#Cc1nccc(C2(NC(=O)Nc3ccc(-c4ccc(C(=O)NCCc5c[nH]cn5)cc4)cc3)CCCCC2)n1 [Example 184] | system: cathepsin S (Homo sapiens)
Response: 8050 nM

Query: # query: IC50 | item Cc1ccc(C)c(NC(=O)NC2(c3ccnc(C#N)n3)CCCC2)c1 [Example 50] | system: cathepsin S (Homo sapiens)
Response: > 10000 nM

Query: # query: IC50 | item N#Cc1nccc(C2(NC(=O)OCc3cccc(-c4ccc(F)nc4)c3)CCCC2)n1 [Example 35] | system: cathepsin S (Homo sapiens)
Response: > 10000 nM

Query: # query: IC50 | item N#Cc1nccc(C2(NC(=O)NCc3ccc(F)cc3)CCCC2)n1 [Example 54] | system: cathepsin S (Homo sapiens)
Response: > 10000 nM

Query: # query: IC50 | item N#Cc1nccc(C2(NC(=O)Nc3ccc(I)c(F)c3)CCCCC2)n1 [Example 137] | system: cathepsin S (Homo sapiens)
Response: 6220 nM

---

assayed-target: cathepsin S (Homo sapiens)
assay-overview: Inhibitory activity assay against cathepsin S (enzyme assay)
Format: biochemical
measurement-setup: Z-Phe-Arg-AMC 70 μM, enzyme 3 nM, pH 6.5, 45 minutes
property: IC50 (nM)

Consider the following illustrative entries.
[
  {
    "compound": "N#Cc1nccc(C2(NC(=O)OCc3ccccc3C(F)(F)F)CCCCC2)n1 [Example 20]",
    "IC50 [nM]": 9230
  },
  {
    "compound": "CS(=O)(=O)c1ccc(-c2ccc(NC(=O)NC3(c4ccnc(C#N)n4)CCCCC3)cc2)cc1C(F)(F)F [Example 171]",
    "IC50 [nM]": 2190
  },
  {
    "compound": "Cc1ccc(C)c(NC(=O)NC2(c3ccnc(C#N)n3)CCC(C)(C)CC2)c1 [Example 84]",
    "IC50 [nM]": 1680
  },
  {
    "compound": "N#Cc1nccc(C2(NC(=O)Nc3ccc(-c4ccc(S(N)(=O)=O)cc4)c(C(F)(F)F)c3)CCCCC2)n1 [Example 179]",
    "IC50 [nM]": 2760
  },
  {
    "compound": "CS(=O)(=O)c1ccc(-c2ccc(NC(=O)NC3(c4ccnc(C#N)n4)CCCCC3)cc2C(F)(F)F)cc1C(F)(F)F [Example 178]",
    "IC50 [nM]": 5600
  }
]

A: CS(=O)(=O)c1ccc(-c2ccc(NC(=O)NC3(c4ccnc(C#N)n4)CCCCC3)cc2C(F)(F)F)cc1 [Example 162]
B: N#Cc1nccc(C2(NC(=O)Nc3ccccc3O)CCCCC2)n1 [Example 102]
Query: Please state the entry with greater IC50 among A and B . Your answer should be the label attached to the chosen record.
Response: B
(B: 6240 nM, A: 3950 nM)
